EXPERIMENT_SUMMARY: Hemolytic activity against human RBC at 0.78 uM after 1 hr by Drabkin's assay relative to control
Assay type: ADME, cell-based, Erythrocyte
DETAILS: human red blood cells (erythrocytes), read-out: Activity
READOUT_NAME: hemolysis at 1 h, 0.78 µM (%)

1) O=C(O)[C@@H]1CCCN1C(=O)N1CCCN1C(=O)[C@@H]1CCCN1C(=O)N1CCCN1C(=O)[C@@H]1CCCN1C(=O)N1CCCN1C(=O)[C@@H]1CCCN1C(=O)N1CCCN1C(=O)[C@@H]1CCCN1C(=O)N1CCCN1C(=O)[C@@H]1CCCN1C(=O)N1CCCN1C(=O)[C@@H]1CCCN1C(=O)N1CCCN1C(=O)[C@@H]1CCCN1C(=O)N1CCCN1C(=O)OCc1ccccc1	-0.181
2) O=CN1CCCN1C(=O)N1CCC[C@H]1C(=O)N1CCCN1C(=O)N1CCC[C@H]1C(=O)N1CCCN1C(=O)N1CCC[C@H]1C(=O)N1CCCN1C(=O)N1CCC[C@H]1C(=O)N1CCCN1C(=O)N1CCC[C@H]1C(=O)N1CCCN1C(=O)N1CCC[C@H]1C(=O)NCCO	-0.16
